// reported IC50 for each item listed
target: Androgen receptor (Homo sapiens, UniProt P10275); experiment: Inhibition of androgen receptor binding function 3 in human LNCAP cells containing androgen-responsive probasin-derived promoter assessed as reduction in PSA expression after 3 days by […] assay; type: cell-based
Sequence (P10275 whole entry): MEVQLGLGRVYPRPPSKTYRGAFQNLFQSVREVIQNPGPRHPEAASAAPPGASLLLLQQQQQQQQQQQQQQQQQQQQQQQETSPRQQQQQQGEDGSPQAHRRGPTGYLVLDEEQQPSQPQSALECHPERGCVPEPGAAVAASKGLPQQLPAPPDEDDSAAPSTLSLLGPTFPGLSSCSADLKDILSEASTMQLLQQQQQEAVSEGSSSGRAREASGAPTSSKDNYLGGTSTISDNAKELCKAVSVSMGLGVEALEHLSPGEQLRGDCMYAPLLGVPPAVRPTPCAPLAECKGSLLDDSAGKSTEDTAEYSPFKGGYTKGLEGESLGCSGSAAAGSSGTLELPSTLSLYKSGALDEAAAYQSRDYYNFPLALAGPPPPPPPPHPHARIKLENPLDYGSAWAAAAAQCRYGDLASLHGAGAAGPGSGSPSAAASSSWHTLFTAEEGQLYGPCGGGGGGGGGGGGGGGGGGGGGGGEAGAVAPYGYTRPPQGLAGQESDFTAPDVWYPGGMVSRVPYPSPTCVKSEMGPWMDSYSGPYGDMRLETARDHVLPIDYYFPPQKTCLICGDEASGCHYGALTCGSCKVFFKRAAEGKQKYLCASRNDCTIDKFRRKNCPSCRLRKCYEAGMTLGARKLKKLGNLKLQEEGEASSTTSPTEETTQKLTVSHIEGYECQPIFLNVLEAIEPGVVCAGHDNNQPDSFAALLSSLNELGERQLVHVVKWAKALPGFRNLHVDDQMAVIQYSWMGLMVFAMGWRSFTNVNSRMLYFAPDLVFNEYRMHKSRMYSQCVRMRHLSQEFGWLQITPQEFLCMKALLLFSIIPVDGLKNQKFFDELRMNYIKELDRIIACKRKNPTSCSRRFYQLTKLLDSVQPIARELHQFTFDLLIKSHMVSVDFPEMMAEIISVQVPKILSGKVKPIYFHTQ
Unit nM implied. Number only.

>  <mol>
CC(C)N(Cc1ccco1)C(=O)c1cc2ccc(F)cc2[nH]1

>  <value-type>
IC50

>  <unit-string>
nM

>  <reported-measurement>
530

$$$$
>  <mol>
Cc1ccc(CN(C(=O)c2cc3cccc(F)c3[nH]2)C(C)C)o1

>  <value-type>
IC50

>  <unit-string>
nM

>  <reported-measurement>
1200

$$$$
>  <mol>
CC(C)N(Cc1ccco1)C(=O)c1cc2cc(F)ccc2[nH]1

>  <value-type>
IC50

>  <unit-string>
nM

>  <reported-measurement>
500

$$$$
>  <mol>
Cc1ccc2cc(C(=O)N(Cc3ccc(C)o3)C(C)C)[nH]c2c1

>  <value-type>
IC50

>  <unit-string>
nM

>  <reported-measurement>
1650

$$$$

Now consider a different compound.
Ask: Which IC50 reading was recorded for the compound CC(C)N(Cc1ccco1)C(=O)c1cc2cc(C(F)(F)F)ccc2[nH]1 ?
Result: 5290

The measurements presented in this section are drawn from ChEMBL document CHEMBL3351962.
